- Assay Explanation: Pharmacokinetic study: plasma concentration and plasma PK parameters after IV/PO dosing (LC-MS/MS, WinNonlin)
- Assay type: in vivo, Male SD Rat
- Measurement Parameters: male, Sprague-Dawley, rat, plasma, po, 10 mg/kg, male SD rat, PO 10 mg/kg (equal to freebase), 2 h, mean n=3; vehicle 20% HP-β-CD in water (POA, freebase) or water (salts); read-out: concentration in plasma, Mean
Metric: concentration at 2 h (ng/mL)
Kindly answer with a numeric value in ng/mL, unit omitted.

Qu. Item under review: COc1cc2c(cc1OC)[C@@H]1Cc3ccc(O)c(OC)c3CN1CC2 . Reported concentration at 2 h?
Ans. 66.7

###

- Assay Explanation: Pharmacokinetic study: plasma concentration and plasma PK parameters after IV/PO dosing (LC-MS/MS, WinNonlin)
- Format: in vivo, Male SD Rat
- Measurement Parameters: male SD rat, PO 10 mg/kg (equal to freebase) vs IV 3 mg/kg freebase, mean n=3; vehicle 20% HP-β-CD in water (POA, freebase) or water (salts)
Metric: F, Mean (%)
Kindly answer with a numeric value in %, unit omitted.

Reference set (3 entries):
Compound	Quantity Unit	Observed Value
COc1cc2c(cc1OC)[C@@H]1Cc3ccc(O)c(OC)c3CN1CC2	%	23.4
COc1cc2c(cc1OC)[C@@H]1Cc3ccc(O)c(OC)c3CN1CC2.Cl [TLZ-16 HCl]	%	27.1
COc1cc2c(cc1OC)[C@@H]1Cc3ccc(O)c(OC)c3CN1CC2.O=C(O)/C=C\C(=O)O [TLZ-16 maleate]	%	25.5

Kindly review the next compound as well.
Qu. Item under review: COc1cc2c(cc1OC)C1Cc3ccc(O)c(OC)c3CN1CC2.CS(=O)(=O)O (stereo not shown) [TLZ-16 mesylate] . Reported F, Mean?
Ans. 40.2

###

- Assay Explanation: Pharmacokinetic study: plasma concentration and plasma PK parameters after IV/PO dosing (LC-MS/MS, WinNonlin)
- Format: in vivo, Male SD Rat
- Measurement Parameters: male, SD, rat, plasma, po, 10 mg/kg, male SD rat, PO 10 mg/kg (equal to freebase), plasma, individual rats; vehicle 20% HP-β-CD in water (POA, freebase) or water (salts); read-out: Tmax
Metric: Tmax (min)
Kindly answer with a numeric value in min, unit omitted.

Qu. Item under review: COc1cc2c(cc1OC)[C@@H]1Cc3ccc(O)c(OC)c3CN1CC2 . Reported Tmax?
Ans. 30

###

Each entry below lists one item and its recorded AUC—% Extrap_obs, Mean value.
- Assay Explanation: Pharmacokinetic study: plasma concentration and plasma PK parameters after IV/PO dosing (LC-MS/MS, WinNonlin)
- Type: in vivo, Male SD Rat
- Measurement Parameters: male SD rat, PO 10 mg/kg (equal to freebase), plasma, mean n=3; vehicle 20% HP-β-CD in water (POA, freebase) or water (salts)
Kindly answer with a numeric value in %, unit omitted.

Reference set (3 entries):
Compound	AUC—% Extrap_obs, Mean, %
COc1cc2c(cc1OC)[C@@H]1Cc3ccc(O)c(OC)c3CN1CC2.Cl [TLZ-16 HCl]	3.70
COc1cc2c(cc1OC)[C@@H]1Cc3ccc(O)c(OC)c3CN1CC2 [Compound (1), l-corydalmine]	19.8
COc1cc2c(cc1OC)[C@@H]1Cc3ccc(O)c(OC)c3CN1CC2.O=C(O)/C=C\C(=O)O [TLZ-16 maleate]	19.0

Kindly review the next compound as well.
Qu. Item under review: COc1cc2c(cc1OC)C1Cc3ccc(O)c(OC)c3CN1CC2.CS(=O)(=O)O (stereo not shown) [TLZ-16 mesylate] . Reported AUC—% Extrap_obs, Mean?
Ans. 9.82
